tested.system: T1, human TGF-beta 1 (R&D Systems, Cat # 240-B/CF) (human, UniProt P01137 279-390)
T1 construct: They match K95 and residues 58-61 of mature numbering; also called TGF-β1; mature TGF-β1
T1 sequence (P01137 279-390 limits assumed): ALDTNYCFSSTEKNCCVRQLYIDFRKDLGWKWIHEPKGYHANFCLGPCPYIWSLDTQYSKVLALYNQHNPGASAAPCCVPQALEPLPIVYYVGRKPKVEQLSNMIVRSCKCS
protocol.description: Biacore SPR, calculated koff/kon
Description: Alternate methods of measuring kinetic constants are known, for example: affinity of a binding composition for human TGF-beta 1 (R&D Systems, Cat #240-B/CF), TGF-beta 2 (RDI, Cat # RDI-1035) and TGF-beta 3 (RDI, Cat # RDI-1036/CF) is measured using a BlAcore® 2000 instrument. […] Binding is evaluated using multiple analytical cycles. […]
observable: Kd (pM)
Answers are plain numbers, in pM.

binder	observable	recorded.number
mAb 23A3 (antibody, IgG4, V domains shown) VH: QVQLVQSGAEVKKPGASVKVSCKASGYDFTDYNMVWVRQAPGQGLEWMGSIYPYDGETGYNQKFKSRVTMTTDTSTSTAYMELRSLRSDDTAVYYCARGYRAFEYWGQGTLVTVSS VL: DIQMTQSPSSLSASVGDRVTITCRASSSVPYMHWYQQKPGKAPKLLIYATSNPAYGVPSRFSGSGSGTDFTLTISSLQPEDFATYYCQQWDLNPPAFGQGTKLEIK	Kd	0.8

Consider now this further binder.
The binder listed as mAb DM4 (antibody, human IgG4 S228P, kappa, V domains shown, Full-length IgG4 antibody; also called LA307-DM4) VH: QVQLVQSGAEVKKPGASVKVSCKASGYDFTDYNIHWVRQAPGQGLEWMGYIYPYDGETGYNQKFKSRVTMTTDTSTSTAYMELRSLRSDDTAVYYCARGYRWLAYWGQGTLVTVSS VL: DIQMTQSPSSLSASVGDRVTITCRASSSVSYMHWYQQKPGKAPKPLIYATSNLAYGVPSRFSGSGSGTDFTLTISSLQPEDFATYYCQQWDLNPPAFGQGTKLEIKR has a reported Kd of 0.9
